The origin of these recorded values is a melting point compilation (Tetko et al.).

Give measured melting point for each item. Keep answers brief.

CC(=O)c1cccc(S(=O)(=O)N2CCOCC2)c1; 142 to 144 °C

Provide each entry's melting point from the list below.
1. O=C1NC(=O)N(C2CC2)C1=O
2. CCN(CC)S(=O)(=O)c1cccc(C(=O)O)c1
3. O=[N+]([O-])c1cc(CCl)c2c(c1)COCO2
4. OC(CC1CCCCCN1)c1cccs1 (stereo not given)

1. 115 to 117 °C
2. 164 to 166 °C
3. 94 to 96 °C
4. 60 to 62 °C

Provide each entry's melting point from the list below.
1. Cc1cc(F)c(C(=O)CCl)cc1F
2. Nc1cc2c(cc1F)CCC(=O)N2
3. CN(C)c1ccc(C#N)c(F)c1
4. CC(C)(C)OC(=O)NCCN=C=O
5. N#CCc1ccc(C(N)=O)cc1

1. 93 to 95 °C
2. 174 to 176 °C
3. 56 to 58 °C
4. 102 to 104 °C
5. 186 to 188 °C

----------
Give measured melting point for each item. Keep answers brief.

Reference set (8 entries):
COc1ccccc1CNC(=O)n1ccnc1; 128 to 130 °C
CCOC(=O)c1c(N)sc2c1CCN(C(=O)OCC)C2; 145 to 147 °C
O=[N+]([O-])c1cccc(-c2nnc(CCl)o2)c1; 115 to 117 °C
Cc1cc(C)c(S(=O)(=O)Cl)c(C)c1NS(C)(=O)=O; 175 to 177 °C
O=C(NC1CC1)C(Cl)c1ccc(F)cc1 (configuration not stated); 135 to 137 °C
O=C(O)c1cccc2c3c([nH]c12)CCCCC3; 225 to 227 °C
O=Cc1c(-c2ccccc2)nc2ccccn12; 144 to 146 °C
COC(=O)c1cc2cc(CBr)ccc2o1; 108 to 110 °C

Provide each entry's melting point from the list below.
1. Nc1cccc(NC(=O)NCc2ccncc2)c1
2. O=C(O)CNC(=O)c1c(F)cccc1Cl

["159 to 161 °C", "197 to 199 °C"]

Provide each entry's melting point from the list below.
1. O=C(O)C1CCC(=O)N(Cc2ccccc2)C1c1ccccc1 (configuration not stated)
2. Nc1nnn(Cc2ccccc2)n1
3. CCN(CC)S(=O)(=O)c1ccc(NC)c(N)c1
4. CC(Cc1ccccc1Cl)C(=O)O (configuration not stated)
5. COc1ccc(C(=O)O)cc1S(=O)(=O)Cc1cc(C)no1
6. NCc1cccc(NC(=O)c2ccc(F)cc2)c1
7. O=C(O)C1(C(=O)NC2CC2)CC1

1. 164 to 166 °C
2. 183 to 185 °C
3. 119 to 121 °C
4. 56 to 58 °C
5. 217 to 219 °C
6. 132 to 134 °C
7. 145 to 147 °C

----------
Endpoint: melting point

Nc1ccc2[nH]c(C(F)F)nc2c1; 129 to 131 °C
O=c1[nH]nnc2c1cnn2-c1ccccc1; 144 to 146 °C
Nc1ccc(Sc2ccc(Cl)cc2)cc1; 60 to 62 °C
O=C(O)c1csc(C2CC2)n1; 123 to 125 °C
Cc1c(NC(=O)CSCC(=O)O)c(=O)n(-c2ccccc2)n1C; 180 to 182 °C

Provide each entry's melting point from the list below.
1. Sc1nc(-c2cccs2)no1
2. Cn1ccnc1C(N)c1ccccc1F (stereo not drawn)
3. CC(C)CCNC(=O)CC(=O)NCCC(C)C
4. CC(C)(C)OC(=O)N1CCC(CC#N)CC1

1: 108 to 110 °C; 2: 58 to 60 °C; 3: 69 to 71 °C; 4: 72 to 74 °C

Provide each entry's melting point from the list below.
1. COCCNS(=O)(=O)c1ccc(C(=O)O)cc1
2. O=C(O)c1ccc(F)c(S(=O)(=O)Cc2ncon2)c1
3. CC1CCC(=CC(=O)O)CC1 (stereo not drawn)
4. C=CCNC(=O)NC(C)(C)C(=O)O

["254 to 256 °C", "169 to 171 °C", "61 to 63 °C", "125 to 127 °C"]

Provide each entry's melting point from the list below.
1. N=c1[nH]cc(S(=O)(=O)O)cc1[N+](=O)[O-]
2. CC(=O)N1CC(C)CNc2ccccc21 (stereo not drawn)
3. N#Cc1ncc(C(=O)O)cc1Br
4. CS/C(=N\C#N)N1CCOCC1
5. O=C(O)c1ccc(Cl)c(S(=O)(=O)N2CCCCC2)c1
6. O=C(CCl)NCc1ccc(C(=O)N2CCCC2)cc1
7. CS(=O)(=O)Cc1cc(N)ccc1Cl
8. O=C(O)CNC(=O)c1cccc([N+](=O)[O-])c1

1: 317 to 319 °C; 2: 141 to 143 °C; 3: 177 to 179 °C; 4: 126 to 128 °C; 5: 218 to 220 °C; 6: 128 to 130 °C; 7: 135 to 137 °C; 8: 90 to 92 °C

Provide each entry's melting point from the list below.
1. Oc1cccc(Oc2ncccn2)c1
2. CC(C)C(Br)C(=O)Nc1cc(Cl)ccc1Cl (stereo not drawn)
3. NS(=O)(=O)c1ccc(-n2cccn2)c(F)c1
4. N#Cc1ccc2[nH]cnc2c1

192 to 194 °C
126 to 128 °C
190 to 192 °C
203 to 205 °C

----------
Endpoint: melting point

Reference set (2 entries):
N#Cc1cc(Cl)nc2ccccc12; 153 to 155 °C
Cn1cnc([N+](=O)[O-])c1S(=O)(=O)Cl; 100 to 102 °C

// lookup melting point for Cc1cccc2c(CCC(=O)O)c[nH]c12
149 to 151 °C

----------
Endpoint: melting point

Nc1onc(-c2ccccc2)c1-c1ccccc1; 144 to 146 °C
O=CC(Br)C=Nc1nccs1 (stereo not given); 137 to 139 °C
CCn1c(C)nc2cc(C(=O)NN)ccc21; 183 to 185 °C
CN(C)C(=O)Nc1cccc(C(=O)O)c1; 209 to 211 °C
O=C1COc2c(Br)cc(Cl)cc21; 139 to 141 °C

Provide each entry's melting point from the list below.
1. Cc1nc2c(C#N)cnn2c(O)c1CC(=O)O
2. O=C(NCCN1CCOCC1)C1CCNCC1
3. Cc1nc(O)nc(O)c1N

275 to 277 °C
127 to 129 °C
259 to 261 °C

----------
Give measured melting point for each item. Keep answers brief.

Cc1cc(Oc2ncccc2C#N)ccc1N; 158 to 160 °C
Cc1cc(S(N)(=O)=O)sc1C(=O)O; 249 to 251 °C
Nc1nnc(SCC(=O)O)s1; 196 to 198 °C

Provide each entry's melting point from the list below.
1. N#Cc1ccc(Cl)cc1S(=O)(=O)Cl
2. Nc1cnncc1Cl
3. Cc1cc(C)n(-c2ccc(N)cc2F)n1
4. Cc1ccccc1-n1nc(C(=O)O)c2c1CCC2

1. 79 to 81 °C
2. 79 to 81 °C
3. 124 to 126 °C
4. 205 to 207 °C

----------
Endpoint: melting point

Reference set (4 entries):
Fc1ccc(NCc2cccnc2)c(F)c1; 87 to 89 °C
CCCC1CCc2[nH]c(=O)c(C#N)cc2C1 (stereo not drawn); 233 to 235 °C
Nc1c(Oc2ccc(Cl)cc2)ccc2ncccc12; 124 to 126 °C
O=Cc1sc2ccccc2c1Cl; 104 to 106 °C

Provide each entry's melting point from the list below.
1. CC(C)(O)c1nc2ccccc2s1
2. CCCCC(NC(=O)C(C)NC(C)=O)C(=O)O (stereo not drawn)

["89 to 91 °C", "143 to 145 °C"]

Provide each entry's melting point from the list below.
1. O=C(O)c1[nH]c2ccc(F)cc2c1Cl
2. Cc1oc2ccccc2c1C=O

1. 279 to 281 °C
2. 69 to 71 °C

----------
Give measured melting point for each item. Keep answers brief.

Reference set (3 entries):
CCOc1cc(C=O)cc(Br)c1OC(F)F; 94 to 96 °C
Cc1cc(C(=O)O)c(Cl)cc1F; 149 to 151 °C
CC(C)(C)C(O)CN (configuration not stated); 64 to 66 °C

Provide each entry's melting point from the list below.
1. COC(=O)c1oc(Br)cc1C
2. NS(=O)(=O)c1nc2ccccc2[nH]1
3. Cc1c(C(=O)O)sc2nc3n(c(=O)c12)CCCCC3
4. CN(C)c1cc(N)ccn1
5. COc1ccc2[nH]cc(C(C)=O)c2c1
6. O=C(O)C1(Cc2cccc(Cl)c2)CCCC1
7. Cc1cc(NC(=O)C(C)Cl)no1 (configuration not stated)

1: 62 to 64 °C; 2: 215 to 217 °C; 3: 253 to 255 °C; 4: 146 to 148 °C; 5: 206 to 208 °C; 6: 60 to 62 °C; 7: 132 to 134 °C

Provide each entry's melting point from the list below.
1. CCc1cc(C(=O)O)n[nH]1
2. CCOC(=O)COc1ccc(C#N)cc1

191 to 193 °C
54 to 56 °C
